# MEASUREMENT_TARGET: Human STING (Homo sapiens, UniProt Q86WV6, G230A/H232R/R293Q/R71H)
# Sequence (Q86WV6 whole entry R71H/G230A/H232R/R293Q): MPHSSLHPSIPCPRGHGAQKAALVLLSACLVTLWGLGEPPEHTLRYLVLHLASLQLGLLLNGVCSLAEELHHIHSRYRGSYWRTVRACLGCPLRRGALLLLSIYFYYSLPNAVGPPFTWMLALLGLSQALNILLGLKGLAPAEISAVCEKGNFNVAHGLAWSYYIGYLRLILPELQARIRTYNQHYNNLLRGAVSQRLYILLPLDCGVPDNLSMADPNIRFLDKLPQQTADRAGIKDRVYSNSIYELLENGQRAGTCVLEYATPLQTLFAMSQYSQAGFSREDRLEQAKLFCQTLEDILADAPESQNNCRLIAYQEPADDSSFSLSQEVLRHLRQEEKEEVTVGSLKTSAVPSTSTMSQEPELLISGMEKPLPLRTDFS
# EXPERIMENT_NOTES: Reporter gene assay, human STING agonist activity, THP1-Dual cells (HAQ-mutated), IRF pathway
# CONDITION_SUMMARY: THP1-Dual cells IRF EC50, THP1-Dual cells (HAQ-mutated), 24 hours; 100% = maximum count with ML-RR-CDA·2Na+
So I've got a bunch of compounds here, and I need their pEC50 values.
FYI, pEC50 means -log10 of a concentration in mol per litre.

What value of pEC50 has been recorded for this entry: Nc1nc(NCCO)nc2c1ncn2[C@@H]1O[C@@H]2COP(=O)(S)O[C@H]3[C@@H](O)[C@H](n4cc5c6c(ncnc64)NCCC5)O[C@@H]3COP(=O)(S)O[C@@H]1[C@@H]2O (single isomer, unassigned) [9a] 5.24

Now this one: O=c1c2ncn([C@@H]3O[C@@H]4COP(=O)(S)O[C@H]5C[C@H](n6cc7c8c(ncnc86)NCCC7)O[C@@H]5COP(=O)(S)O[C@@H]3[C@@H]4O)c2ncn1CCO (single isomer, unassigned) [32b] 5.19

Then this compound: O=c1c2ncn([C@@H]3O[C@@H]4COP(=O)(S)O[C@H]5[C@H](F)[C@H](n6cc7c8c(ncnc86)NCCC7)O[C@@H]5COP(=O)(S)O[C@@H]3[C@@H]4O)c2ncn1CCO (single isomer, unassigned) [33a] 6.74

Another compound: NCCn1cnc2c(ncn2[C@@H]2O[C@@H]3COP(=O)(S)O[C@H]4[C@@H](O)[C@H](n5cc6c7c(ncnc75)NCCC6)O[C@@H]4COP(=O)(S)O[C@@H]2[C@@H]3O)c1=O (single isomer, unassigned) 5.62

O=c1c2ncn([C@@H]3O[C@@H]4COP(=O)(O)O[C@H]5[C@@H](F)[C@H](n6cc7c8c(ncnc86)NCCC7)O[C@@H]5COP(=O)(S)O[C@@H]3[C@@H]4O)c2ncn1CCO (single isomer, unassigned) [52b] ? 6.34

Could you do the same for O=c1c2ncn([C@@H]3O[C@@H]4COP(=O)(S)O[C@H]5C[C@H](n6cc7c8c(ncnc86)NCCC7)O[C@@H]5COP(=O)(S)O[C@@H]3[C@@H]4O)c2ncn1CCO (single isomer, unassigned) [32a] , please? 5.92

Now the same for Nc1ncnc2c1ncn2[C@@H]1O[C@@H]2COP(=O)(S)O[C@H]3[C@@H](O)[C@H](n4cc5c6c(ncnc64)SCCC5)O[C@@H]3COP(=O)(S)O[C@@H]1[C@@H]2O (single isomer, unassigned) [23b] 7.26

Also NCCNc1nc(N)c2ncn([C@@H]3O[C@@H]4COP(=O)(S)O[C@H]5[C@@H](F)[C@H](n6cc7c8c(ncnc86)NCCC7)O[C@@H]5COP(=O)(S)O[C@@H]3[C@@H]4O)c2n1 (single isomer, unassigned) [37a] , if possible. 6.01

Another: O=C(CO)NCCn1cnc2c(ncn2[C@@H]2O[C@@H]3COP(=O)(S)O[C@H]4[C@@H](F)[C@H](n5cc6c7c(ncnc75)SCCC6)O[C@@H]4COP(=O)(S)O[C@@H]2[C@@H]3O)c1=O (single isomer, unassigned) [50b] 6.70

How about O=C(CO)NCCn1cnc2c(ncn2[C@@H]2O[C@@H]3COP(=O)(S)O[C@H]4[C@@H](O)[C@H](n5cc6c7c(ncnc75)NCCC6)O[C@@H]4COP(=O)(S)O[C@@H]2[C@@H]3F)c1=O (single isomer, unassigned) [41b] ? 5.44

* * *

# MEASUREMENT_TARGET: HisAviTEV-hSTING (139-342) human AQ-mutated protein (Homo sapiens, UniProt Q86WV6, G230A/H232R/R293Q)
# Construct: made in house; host or cells: E. coli Rosetta 2 (DE3), co-expressed with BirA (1-321)
# Sequence (Q86WV6 with tags, fused parts or gaps G230A/H232R/R293Q): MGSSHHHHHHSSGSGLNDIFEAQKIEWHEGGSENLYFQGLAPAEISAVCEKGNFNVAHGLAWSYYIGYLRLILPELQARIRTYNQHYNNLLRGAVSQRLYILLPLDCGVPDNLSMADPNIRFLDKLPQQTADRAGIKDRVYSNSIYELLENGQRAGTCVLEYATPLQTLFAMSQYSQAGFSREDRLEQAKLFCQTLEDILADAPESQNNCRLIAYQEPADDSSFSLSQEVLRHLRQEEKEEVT
# EXPERIMENT_NOTES: Protein thermal shift assay, STING C-terminal binding domain protein
# CONDITION_SUMMARY: test compound final concentration 0.5 mM
Record form. Attribute: ΔTm at 500 µM. Fill in for each entry.
The reply should consist of the numeric value with the unit placed after it.

Item Nc1ncnc2c1ncn2[C@@H]1O[C@@H]2COP(=O)(S)O[C@H]3[C@@H](O)[C@H](n4cc5c6c(ncnc64)SCCC5)O[C@@H]3COP(=O)(S)O[C@@H]1[C@@H]2O (single isomer, unassigned) [23a] has what recorded ΔTm at 500 µM? 12.2 °C

What about this compound? Nc1nc(CO)nc2c1ncn2[C@@H]1O[C@@H]2COP(=O)(S)O[C@H]3[C@@H](O)[C@H](n4cc5c6c(ncnc64)NCCC5)O[C@@H]3COP(=O)(S)O[C@@H]1[C@@H]2O (single isomer, unassigned) [12a] 9.6 °C

Now give it for O=c1c2ncn([C@@H]3O[C@@H]4COP(=O)(S)O[C@H]5[C@@H](F)[C@H](n6cc7c8c(ncnc86)NCCC7)O[C@@H]5COP(=O)(O)O[C@@H]3[C@@H]4O)c2ncn1CCO (some centres unmarked) [53a] too. 11.6 °C

Note, next up: NCCNc1nc(N)c2ncn([C@@H]3O[C@@H]4COP(=O)(S)O[C@H]5[C@@H](F)[C@H](n6cc7c8c(ncnc86)SCCC7)O[C@@H]5COP(=O)(S)O[C@@H]3[C@@H]4F)c2n1 (single isomer, unassigned) [51b] 11.6 °C

What do you have for O=c1c2ncn([C@@H]3O[C@@H]4COP(=O)(O)O[C@H]5[C@@H](F)[C@H](n6cc7c8c(ncnc86)NCCC7)O[C@@H]5COP(=O)(O)O[C@@H]3[C@@H]4O)c2ncn1CCO [compound 54] ? 9.8 °C

* * *

# MEASUREMENT_TARGET: HisAviTEV-hSTING (139-342) human AQ-mutated protein (Homo sapiens, UniProt Q86WV6, G230A/H232R/R293Q)
# Construct: made in house; host or cells: E. coli Rosetta 2 (DE3), co-expressed with BirA (1-321)
# EXPERIMENT_NOTES: Protein thermal shift assay, STING C-terminal binding domain protein
# CONDITION_SUMMARY: test compound final concentration 0.5 mM
Exercise: for every item that follows, state its recorded ΔTm at 500 µM.
Give your result in °C as a bare value.

Param item = Nc1nc2c(ncn2[C@@H]2O[C@@H]3COP(=O)(S)O[C@H]4[C@@H](O)[C@H](n5cc6c7c(ncnc75)NCCC6)O[C@@H]4COP(=O)(S)O[C@@H]2[C@@H]3O)c(=O)[nH]1 (single isomer, unassigned) ; retrieve measured ΔTm at 500 µM. 17

Likewise for NCCNc1nc(N)c2ncn([C@@H]3O[C@@H]4COP(=O)(S)O[C@H]5[C@@H](F)[C@H](n6cc7c8c(ncnc86)NCCC7)O[C@@H]5COP(=O)(S)O[C@@H]3[C@@H]4F)c2n1 (single isomer, unassigned) [45a] ? 10.8

// next record NCCNc1nc(N)c2ncn([C@@H]3O[C@@H]4COP(=O)(S)O[C@H]5[C@@H](O)[C@H](n6cc7c8c(ncnc86)NCCC7)O[C@@H]5COP(=O)(S)O[C@@H]3[C@@H]4O)c2n1 (single isomer, unassigned) 10.8

Same lookup for O=c1c2ncn([C@@H]3O[C@@H]4COP(=O)(S)O[C@H]5[C@@H](F)[C@H](n6cc7c8c(ncnc86)SCCC7)O[C@@H]5COP(=O)(S)O[C@@H]3[C@@H]4O)c2ncn1CCO (single isomer, unassigned) [48a] , please. 22.2

Another molecule to check: O=c1c2ncn([C@@H]3O[C@@H]4COP(=O)(S)O[C@H]5[C@@H](O)[C@H](n6cc7c8c(ncnc86)NCCC7)O[C@@H]5COP(=O)(S)O[C@@H]3[C@@H]4O)c2ncn1CCCO (single isomer, unassigned) [26b] 11.5

Please give the result for NCCNc1nc(N)c2ncn([C@@H]3O[C@@H]4COP(=O)(S)O[C@H]5[C@@H](O)[C@H](n6cc7c8c(ncnc86)NCCC7)O[C@@H]5COP(=O)(S)O[C@@H]3[C@@H]4F)c2n1 (single isomer, unassigned) [42a] too. 9

// same read-out, input: O=C(CO)NCCn1cnc2c(ncn2[C@@H]2O[C@@H]3COP(=O)(S)O[C@H]4[C@@H](F)[C@H](n5cc6c7c(ncnc75)SCCC6)O[C@@H]4COP(=O)(S)O[C@@H]2[C@@H]3O)c1=O (single isomer, unassigned) [50a] 15.6

Here is the next molecule: Nc1ncnc2c1ncn2[C@@H]1O[C@@H]2COP(=O)(S)O[C@H]3[C@@H](O)[C@H](n4cc5c6c(ncnc64)NCCC5)O[C@@H]3COP(=O)(S)O[C@@H]1[C@@H]2O (single isomer, unassigned) 12

Follow-up item: O=c1c2ncn([C@@H]3O[C@@H]4COP(=O)(S)O[C@H]5[C@@H](F)[C@H](n6cc7c8c(ncnc86)NCCC7)O[C@@H]5COP(=O)(S)O[C@@H]3[C@@H]4F)c2ncn1CCO (single isomer, unassigned) [44a] 18.2
